Values from patent US20260152527A1

# system_name: human recombinant MC4R (CHO-K1/Gα15 stable cell line, GenScript) (human, UniProt P32245 1-332)
# Sequence (P32245 whole entry): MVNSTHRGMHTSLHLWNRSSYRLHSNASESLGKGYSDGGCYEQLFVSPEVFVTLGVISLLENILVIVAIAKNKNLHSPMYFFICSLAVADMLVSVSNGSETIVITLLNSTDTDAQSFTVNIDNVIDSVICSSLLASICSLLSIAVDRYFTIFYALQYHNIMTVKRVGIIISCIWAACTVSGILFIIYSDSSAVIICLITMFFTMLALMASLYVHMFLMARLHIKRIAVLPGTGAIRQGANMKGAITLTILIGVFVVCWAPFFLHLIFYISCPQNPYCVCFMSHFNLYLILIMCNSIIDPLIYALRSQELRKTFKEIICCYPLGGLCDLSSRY
# method: cell-based or functional assay
Positions of bridges follow the written chain, without caps; N, C: chain ends. Non-standard residues stand in square brackets, D forms with d. NMeW = CN[C@@H](Cc1c[nH]c2ccccc12)C(=O)O; Lys(N3) = [N-]=[N+]=NCCCC[C@H](N)C(=O)O; NMeH = CN[C@@H](Cc1c[nH]cn1)C(=O)O; Nle = CCCC[C@H](N)C(=O)O; Pra = C#CC[C@H](N)C(=O)O
measured_attribute: MC4R IC50 (nM)

>>> numeric_readout("Ac-[Nle][Lys(N3)][NMeH][dF]R[NMeW][Pra]-NH2 (triazole 2-7) [KR-051]")
96.2
>>> numeric_readout("Ac-EHFRWGKP-NH2 [KR-007]")
16.4
>>> numeric_readout("Ac-[Nle][Lys(N3)]HFRW[Pra]-NH2 (triazole 2-7) [KR-008]")
74.5
>>> numeric_readout("Ac-SYSMEHFRWGKP-NH2 [KR-005]")
67
